# Test system: lacZ under control of the tetA promoter (PtetA) in E. coli KM3
# Assay type: cell-based
# ASSAY_SETUP: Table 4; sulfometuron 20 ppm; 48 hrs at 30° C.
PROPERTY_MEASURED: relative β-galactosidase activity, inducer Sm
Give bare numbers.

Record excerpt, results attached:
L1-24: SU-responsive TetR(B) variant, library L1 hit (protein, Sulfonylurea responsive repressor L1-24) MGSRLDKSKVINSALELLNEVGIEGLTTRKLAQKLGVEQPTLYWHVKNKRALLDALAIEMLDRHNTHFCPLEGESWQDFLRNSAKSMRCALLSHRDGAKVLLGTAVTEKQYETTENSLAFLCQQGFSLENALYAIRAVRTFTLGCVLVDQERQVAKEERETPTTDSMPPLLRQAKELLDHQGAEPAFLFGLELIICGLEKQLKCESGS; 3.1
L1-9: SU-responsive TetR(B) variant, library L1 hit (protein, Sulfonylurea responsive repressor L1-09) MGSRLDKSKVINSALELLNEVGIEGLTTRKLAQKLGVEQPTLYWHVKNKRALLDALAIEMLDRHATHFCPLEGESWQDFLRNNAKSMRCALLSHRDGAKVCLGTGFTEKQYETAENSLAFLCQQGFSLENALYAMQAVCIFTLGCVLLDQELQVAKEERETPTTDSMPPLLRQALELKDHQGAEPAFLFGLELIICGLEKQLKCESGS; 0.6

Moving on to another molecule below.
Request: Name the recorded relative β-galactosidase activity, inducer Sm of the molecule listed here: L1-7: SU-responsive TetR(B) variant, library L1 hit, SEQ ID NO: 4 (protein, Sulfonylurea responsive repressor L1-07) MGSRLDKSKVINSALELLNEVGIEGLTTRKLAQKLGVEQPTLYWHVKNKRALLDALAIEMLDRHNTHFCPLEGESWQDFLRNNAKSWRCALLSHRDGAKVVLGTAITEKQYETHENPLAFLCQQGFSLENALYAIAAVRRFTLGCVLVDQERQVAKEERETPTTDSMPPLLRQASELQDHQGAEPAFLFGLELIICGLEKQLKCERGS
Result: 6.4
